- System: Escherichia coli TOP10
- experiment: shrunken log2 fold change of peptide-encoding DNA abundance (4.5 h post-induction vs induction); higher = less antimicrobial activity (less host growth inhibition)
- conditions used: time post-induction: 4.5 h; library: site-saturation at positions 5, 18, 19, 20
endpoint label: shrunken log2 fold change
Enter a number only.

Example entries begin here.
RRIRWRPPRLPRPRPRPRLLPRP 0.178
RRIRIRPPRLPRPRPRPAEKPRP -0.213
RRIRPRPPRLPRPRPRPPKEPRP 0.506

Write down the reported shrunken log2 fold change of RRIRDRPPRLPRPRPRPQMYPRP , test system: Escherichia coli TOP10.
-0.127

Write down the reported shrunken log2 fold change of RRIRRRPPRLPRPRPRPNIWPRP , test system: Escherichia coli TOP10.
0.134

Write down the reported shrunken log2 fold change of RRIRNRPPRLPRPRPRPWRGPRP , test system: Escherichia coli TOP10.
0.226

Write down the reported shrunken log2 fold change of RRIRHRPPRLPRPRPRPSSTPRP , test system: Escherichia coli TOP10.
-0.741

Write down the reported shrunken log2 fold change of RRIRCRPPRLPRPRPRPDMHPRP , test system: Escherichia coli TOP10.
0.0405

Write down the reported shrunken log2 fold change of RRIRERPPRLPRPRPRPKHQPRP , test system: Escherichia coli TOP10.
-0.0699

Write down the reported shrunken log2 fold change of RRIRVRPPRLPRPRPRPDSTPRP , test system: Escherichia coli TOP10.
-0.0391

Write down the reported shrunken log2 fold change of RRIRFRPPRLPRPRPRPLTIPRP , test system: Escherichia coli TOP10.
-0.219

Write down the reported shrunken log2 fold change of RRIRMRPPRLPRPRPRPSHWPRP , test system: Escherichia coli TOP10.
0.0911

Write down the reported shrunken log2 fold change of RRIRKRPPRLPRPRPRPHCQPRP , test system: Escherichia coli TOP10.
0.101

Write down the reported shrunken log2 fold change of RRIRSRPPRLPRPRPRPGYHPRP , test system: Escherichia coli TOP10.
-0.512

Write down the reported shrunken log2 fold change of RRIRSRPPRLPRPRPRPREWPRP , test system: Escherichia coli TOP10.
0.759

Write down the reported shrunken log2 fold change of RRIRTRPPRLPRPRPRPCYQPRP , test system: Escherichia coli TOP10.
-0.335

Write down the reported shrunken log2 fold change of RRIRDRPPRLPRPRPRPRTWPRP , test system: Escherichia coli TOP10.
0.0224

Write down the reported shrunken log2 fold change of RRIRHRPPRLPRPRPRPRYVPRP , test system: Escherichia coli TOP10.
-0.585

---

- Tested on: Escherichia coli TOP10
- experiment: shrunken log2 fold change of peptide-encoding DNA abundance (4.5 h post-induction vs induction); higher = less antimicrobial activity (less host growth inhibition)
- conditions used: time post-induction: 4.5 h; library: site-saturation at positions 5, 18, 19, 20
Parameter: shrunken log2 fold change. Scope: all listed entries.
Enter a number only.

Example entries begin here.
RRIRRRPPRLPRPRPRPDLDPRP 0.67
RRIRWRPPRLPRPRPRPHIWPRP -0.131
RRIRARPPRLPRPRPRPSQWPRP 0.24
RRIRFRPPRLPRPRPRPEYYPRP -0.0413
RRIRSRPPRLPRPRPRPFPWPRP -0.0834

What value of shrunken log2 fold change has been reported for the following sequence? RRIRNRPPRLPRPRPRPDTIPRP
-0.145

What value of shrunken log2 fold change has been reported for the following sequence? RRIRPRPPRLPRPRPRPLCAPRP
0.119

What value of shrunken log2 fold change has been reported for the following sequence? RRIRDRPPRLPRPRPRPMVLPRP
0.359

What value of shrunken log2 fold change has been reported for the following sequence? RRIRSRPPRLPRPRPRPQKRPRP
-0.343

What value of shrunken log2 fold change has been reported for the following sequence? RRIRKRPPRLPRPRPRPYYEPRP
-0.493

What value of shrunken log2 fold change has been reported for the following sequence? RRIRLRPPRLPRPRPRPSWTPRP
-0.0555

What value of shrunken log2 fold change has been reported for the following sequence? RRIRGRPPRLPRPRPRPYPGPRP
-0.0165

What value of shrunken log2 fold change has been reported for the following sequence? RRIRERPPRLPRPRPRPSSIPRP
-0.855

What value of shrunken log2 fold change has been reported for the following sequence? RRIRWRPPRLPRPRPRPGIGPRP
0.433

What value of shrunken log2 fold change has been reported for the following sequence? RRIRSRPPRLPRPRPRPGRRPRP
0.263

What value of shrunken log2 fold change has been reported for the following sequence? RRIRMRPPRLPRPRPRPADQPRP
-0.0145

---

- System: Escherichia coli TOP10
- experiment: shrunken log2 fold change of peptide-encoding DNA abundance (4.5 h post-induction vs induction); higher = less antimicrobial activity (less host growth inhibition)
- conditions used: time post-induction: 4.5 h; library: site-saturation at positions 5, 18, 19, 20
endpoint label: shrunken log2 fold change

Example entries begin here.
RRIRKRPPRLPRPRPRPICCPRP 0.583
RRIRSRPPRLPRPRPRPVKAPRP 0.0824
RRIRYRPPRLPRPRPRPCSAPRP -0.212
RRIRKRPPRLPRPRPRPVYGPRP -0.0742

What value of shrunken log2 fold change has been reported for the following sequence? RRIRGRPPRLPRPRPRPWRVPRP
0.499

What value of shrunken log2 fold change has been reported for the following sequence? RRIRDRPPRLPRPRPRPQWCPRP
0.0917

What value of shrunken log2 fold change has been reported for the following sequence? RRIRHRPPRLPRPRPRPGFAPRP
0.142

What value of shrunken log2 fold change has been reported for the following sequence? RRIRGRPPRLPRPRPRPWTEPRP
0.128

---

- Test system: Escherichia coli TOP10
- experiment: shrunken log2 fold change of peptide-encoding DNA abundance (4.5 h post-induction vs induction); higher = less antimicrobial activity (less host growth inhibition)
- conditions used: time post-induction: 4.5 h; library: site-saturation at positions 5, 18, 19, 20
Parameter: shrunken log2 fold change. Scope: all listed entries.
Enter a number only.

RRIRFRPPRLPRPRPRPYVIPRP -0.303
RRIRLRPPRLPRPRPRPGSRPRP -0.183
RRIRDRPPRLPRPRPRPYGLPRP -0.0553
RRIRRRPPRLPRPRPRPGFEPRP 0.293
RRIRQRPPRLPRPRPRPQHCPRP -0.076
RRIRMRPPRLPRPRPRPIIVPRP -0.0119
RRIRVRPPRLPRPRPRPAPAPRP 0.626
RRIRWRPPRLPRPRPRPGGDPRP 0.556

What value of shrunken log2 fold change has been reported for the following sequence? RRIRQRPPRLPRPRPRPFYKPRP
-0.118

What value of shrunken log2 fold change has been reported for the following sequence? RRIRFRPPRLPRPRPRPKFTPRP
0.012

What value of shrunken log2 fold change has been reported for the following sequence? RRIRLRPPRLPRPRPRPWHVPRP
-0.121

What value of shrunken log2 fold change has been reported for the following sequence? RRIRYRPPRLPRPRPRPQGTPRP
0.034

What value of shrunken log2 fold change has been reported for the following sequence? RRIRKRPPRLPRPRPRPWWNPRP
0.0316

What value of shrunken log2 fold change has been reported for the following sequence? RRIRQRPPRLPRPRPRPIFSPRP
0.0638

What value of shrunken log2 fold change has been reported for the following sequence? RRIRQRPPRLPRPRPRPNYEPRP
-0.123

What value of shrunken log2 fold change has been reported for the following sequence? RRIRDRPPRLPRPRPRPRPMPRP
0.583

What value of shrunken log2 fold change has been reported for the following sequence? RRIRKRPPRLPRPRPRPCHRPRP
0.00781

What value of shrunken log2 fold change has been reported for the following sequence? RRIRARPPRLPRPRPRPAPYPRP
-0.0625

---

- Test system: Escherichia coli TOP10
- experiment: shrunken log2 fold change of peptide-encoding DNA abundance (4.5 h post-induction vs induction); higher = less antimicrobial activity (less host growth inhibition)
- conditions used: time post-induction: 4.5 h; library: site-saturation at positions 5, 18, 19, 20
Tag: 1 if measured shrunken log2 fold change is not below -0.2, 0 if it is.

RRIRFRPPRLPRPRPRPCYFPRP 0
RRIRVRPPRLPRPRPRPEETPRP 1
RRIRDRPPRLPRPRPRPVLNPRP 1

Please check the record RRIRQRPPRLPRPRPRPSTQPRP and state if its shrunken log2 fold change is at or above -0.2.
0

Please check the record RRIRPRPPRLPRPRPRPDPSPRP and state if its shrunken log2 fold change is at or above -0.2.
1

---

- Tested on: Escherichia coli TOP10
- experiment: shrunken log2 fold change of peptide-encoding DNA abundance (4.5 h post-induction vs induction); higher = less antimicrobial activity (less host growth inhibition)
- conditions used: time post-induction: 4.5 h; library: site-saturation at positions 5, 18, 19, 20
endpoint label: shrunken log2 fold change
Enter a number only.

RRIRERPPRLPRPRPRPAVSPRP 0.0433
RRIRARPPRLPRPRPRPPTCPRP 0.559
RRIRLRPPRLPRPRPRPWGIPRP -0.198
RRIRRRPPRLPRPRPRPDSRPRP 0.0229
RRIRWRPPRLPRPRPRPINFPRP -0.143

Write down the reported shrunken log2 fold change of RRIRDRPPRLPRPRPRPIENPRP , test system: Escherichia coli TOP10.
-0.144

Write down the reported shrunken log2 fold change of RRIRMRPPRLPRPRPRPSQEPRP , test system: Escherichia coli TOP10.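 Also: peptides expressed intracellularly from a pBAD plasmid library in pooled LB shake-flask culture, induced with 0.3% L-arabinose, DNA abundance read by NGS, three biological replicates, DESeq2 with apeglm shrinkage.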
0.226

This collection of values is drawn from the supplement of paper PMC9112550.
